tested on: N2a; experiment: Effect on neurite outgrowth in mouse Neuro2a cells at 10 uM after 18 hrs by phase contrast microscopic analysis relative to control; format: cell-based
Where a SMILES comes first, the peptide text is derived from it. Side-chain parts run from the residue outwards. The star is where a group is joined. Adamantane1carbonyl = O=C(C12CC3CC(CC(C3)C1)C2)*
Activity: recorded values
Note: unit % is implicit; provide only the numeric part.

[[record]]
compound = "N=C(N)NCCC[C@H](NC(=O)C12CC3CC(CC(C3)C1)C2)C(=O)N[C@@H](Cc1ccccc1)C(=O)NCCCC[C@H](NC(=O)[C@H](Cc1ccccc1)NC(=O)[C@H](Cc1ccccc1)NC(=O)[C@@H]1CCCN1C(=O)[C@@H](N)Cc1ccc(O)cc1)C(N)=O (H-YPFFK([Phe-Arg-Adamantane1carbonyl])-NH2)"
measure_unit = "%"
endpoint_value = 11.88

[[record]]
compound = "NC(=O)[C@H](Cc1ccccc1)NC(=O)[C@H](CCCN=C(N)N)NC(=O)C12CC3CC(CC(C3)C1)C2"
measure_unit = "%"
endpoint_value = 12.41

[[record]]
compound = "NC(=O)[C@H](Cc1ccccc1)NC(=O)[C@H](Cc1ccccc1)NC(=O)[C@@H]1CCCN1C(=O)[C@@H](N)Cc1ccc(O)cc1 [ENDOMORPHIN 2]"
measure_unit = "%"
endpoint_value = 16.49


stdin: Name the recorded Activity of the item N=C(N)NCCC[C@H](NC(=O)C12CC3CC(CC(C3)C1)C2)C(=O)N[C@@H](Cc1ccccc1)C(=O)N[C@@H](CCCCNC(=O)[C@H](Cc1ccccc1)NC(=O)[C@H](Cc1ccccc1)NC(=O)[C@@H]1CCCN1C(=O)[C@@H](N)Cc1ccc(O)cc1)C(N)=O in your answer.
stdout: 12.71

* * *

tested on: Mus musculus; assay: Antiallodynic activity in carrageenan-induced Kunming mouse model of mechanical hyperalgesia administered as intrathecal injection after 10 to 90 mins in presence of NPFF receptor antagonist RF9 by Von Frey filament assay; format: functional, organism-based
Activity calls are given as the source filed them. The calls are words filed in the database; no cut-off is given here. Where a SMILES comes first, the peptide text is derived from it. Side-chain parts run from the residue outwards. The star is where a group is joined. Adamantane1carbonyl = O=C(C12CC3CC(CC(C3)C1)C2)*
# output must be one of active, inactive

[[record]]
molecule = "N=C(N)NCCC[C@H](NC(=O)C12CC3CC(CC(C3)C1)C2)C(=O)N[C@@H](Cc1ccccc1)C(=O)N[C@@H](CCCCNC(=O)[C@H](Cc1ccccc1)NC(=O)[C@H](Cc1ccccc1)NC(=O)[C@@H]1CCCN1C(=O)[C@@H](N)Cc1ccc(O)cc1)C(N)=O"
study_system = "Mus musculus"
answer_label = "inactive"

[[record]]
molecule = "CC(C)C[C@H](NC(=O)[C@H](Cc1ccccc1)NC(=O)[C@H](C)N(C)C(=O)[C@@H]1CCCN1C(=O)[C@H](N)CC(N)=O)C(=O)N[C@@H](Cc1ccccc1)C(=O)N[C@@H](CCC(N)=O)C(=O)N1CCC[C@H]1C(=O)N[C@@H](CCC(N)=O)C(=O)N[C@@H](CCCNC(=N)N)C(=O)N[C@@H](Cc1ccccc1)C(N)=O"
study_system = "Mus musculus"
answer_label = "inactive"

[[record]]
molecule = "CN1CC[C@]23c4c5ccc(O)c4O[C@H]2[C@@H](O)C=C[C@H]3[C@H]1C5"
study_system = "Mus musculus"
answer_label = "active"


We next turn to a different molecule, shown below.
stdin: Please let me know the test result on file for N=C(N)NCCC[C@H](NC(=O)C12CC3CC(CC(C3)C1)C2)C(=O)N[C@@H](Cc1ccccc1)C(=O)NCCCC[C@H](NC(=O)[C@H](Cc1ccccc1)NC(=O)[C@H](Cc1ccccc1)NC(=O)[C@@H]1CCCN1C(=O)[C@@H](N)Cc1ccc(O)cc1)C(N)=O (H-YPFFK([Phe-Arg-Adamantane1carbonyl])-NH2) .
stdout: inactive
